- Tested on: U251 CNS
- experiment: NCI-60 one-dose screen, 48 h
- experimental parameters: 10 µM unless noted
The panel holds about 83,000 compounds, 20% with a hit somewhere; the sample as a whole holds those more often. Active and inactive are the calls of the source. Rule for the calls: active = growth percent below 10; inactive = the rest.
Outcomes you can answer with include only these: TRUE = active, FALSE = inactive

Known results for molecules:
molecule	group label
Oc1ccc(Cl)cc1Cc1cc(Cl)ccc1O	FALSE
O=C(Cc1ccccc1)C(F)(F)F	FALSE
Cc1cc(C(N)=O)cc(C)c1C(=O)OCCCl	FALSE
CC(C)(C)c1ccc(O)c(-c2ccccc2)c1	FALSE
c1csc(-c2[nH]nc3c2CCc2ccccc2-3)c1	FALSE
CCOC(=O)C1=C(C(=O)c2ccccc2)C(c2cccc([N+](=O)[O-])c2)C(C(=O)c2ccccc2)=C(C(=O)OCC)N1	FALSE

Entry Cc1nc(Sc2nc3ccc([N+](=O)[O-])cc3s2)sc1C : call = ?
FALSE

Entry CN(C)CC(C)(CN(C)C)C(=O)/C=C/c1c(Cl)cccc1Cl : call = ?
FALSE

Entry COc1cccc2c1C(=O)c1c(O)c3c(c(O)c1C2=O)C[C@@](O)(C(=O)CO)C[C@@H]3OC1CC(OC(C)=O)C(OC(C)=O)C(C)O1 (stereo partly specified) : call = ?
TRUE

Entry O=C1C(=O)c2cccnc2-c2ncccc21 : call = ?
TRUE

Entry O=C(c1ccccc1)N(CCCl)C(=O)N(CCCl)C(=O)c1ccccc1 : call = ?
FALSE

Entry CCOC(=O)c1c(C)[nH]c2ccc(O)cc12 : call = ?
FALSE

Entry CCC1CCCCN1C(=S)N/N=C(\C)c1ccccn1 (stereo unspecified) : call = ?
TRUE

Entry Nc1cccc2cccc([N+](=O)[O-])c12 : call = ?
FALSE

---

- Tested on: MALME-3M melanoma
- experiment: NCI-60 one-dose screen, 48 h (100 = growth as untreated, 0 = no growth, -100 = all killed)
- experimental parameters: 10 µM unless noted
About 83,000 compounds went through this panel and 20% of them were active in at least one assay; those are over-represented in the sample as a whole.
Please assign Condition not met whenever growth is at or above 90%, and Condition met whenever it is below.

Known results for molecules:
molecule	group label
O=C(Nc1ccc(Cl)c(Cl)c1)OCc1ccco1	Condition met
COc1cc2c(c(OC)c1OC)-c1ccc(NCc3ccccc3)c(=O)cc1[C@@H](NC(C)=O)CC2	Condition met
O=Nc1ccc2ccccc2c1O	Condition met

Given the entry COc1ccc2c(c1)c(CC(=O)O)c(C)n2C(=O)c1ccc(Cl)cc1 , would its reported growth be below 90%?
Condition met

Given the entry O=C(Cc1ccccc1)C(F)(F)F , would its reported growth be below 90%?
Condition not met

Given the entry O=C1c2ccccc2Cc2cccc(Cl)c21 , would its reported growth be below 90%?
Condition not met

Given the entry O=C(O)c1cc2c(s1)C(=O)c1sccc1C2=O , would its reported growth be below 90%?
Condition met

Given the entry [Cl-].[Rh+3].c1ccc(-c2ccnc3c2ccc2c(-c4ccccc4)ccnc23)cc1.c1ccc(-c2ccnc3c2ccc2c(-c4ccccc4)ccnc23)cc1.c1ccc(-c2ccnc3c2ccc2c(-c4ccccc4)ccnc23)cc1 , would its reported growth be below 90%?
Condition not met

Given the entry CCCCCCCCCCCC[n+]1ccccc1 (tested in a mixture with another compound) , would its reported growth be below 90%?
Condition met
